test system: c-Abl (mouse); test: phosphorylation enrichment, bacterial display (enrichment ratio); higher = better substrate or ligand; peptides without Tyr show the background;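 also: frequency after pTyr selection over input frequency; kinase dosed for 20-30% of maximal phosphorylation in three min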
# phosphorylation enrichment listing for each entry below

Answer with reported phosphorylation enrichment of TVQVAYYTVMM [SPATA17_Y83_M86V]
0.972

Answer with reported phosphorylation enrichment of TPIFPYLLPKS [PLD2_Y580_T577I_YF]
0.7

Answer with reported phosphorylation enrichment of YKIYRYTLNDN [FN1_Y1975_L1974R]
0.688

Answer with reported phosphorylation enrichment of NLVSEYQQYQD [TUBB3_Y422_D417N]
0.679

* * *

test system: c-Abl (mouse); assay: phosphorylation enrichment, bacterial display (enrichment ratio); higher = better substrate or ligand; peptides without Tyr show the background;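 also: 11-residue human phosphosite peptides and single-mutation variants displayed on the E. coli surface, counted by deep sequencing, each peptide's frequency after selection divided by its frequency in the unselected input library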;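 also: frequency after pTyr selection over input frequency; kinase dosed for 20-30% of maximal phosphorylation in three min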
test.readout: phosphorylation enrichment
// response body must contain only the number

> print(dat)
                        residues  recorded.value
1  EQSGSYIWVLA [DLG1_Y895_P899L]           0.705

Answer with reported phosphorylation enrichment of QNTGDYYDLYG [PTPN11_Y62]
1.1

Answer with reported phosphorylation enrichment of LASLIYNFVLF [AQP6_Y231]
4.1

Answer with reported phosphorylation enrichment of PEADKYCLTYA [FGG_Y300_R301C]
0.917

Answer with reported phosphorylation enrichment of NGPDVYVLPVT [AATK_Y93_L97V]
0.787

Answer with reported phosphorylation enrichment of EKLQKYYRKNP [EHHADH_Y682_Q685K]
0.699

Answer with reported phosphorylation enrichment of PQAVTYAEVKH [LILRB4_Y360_K362E]
0.763

Answer with reported phosphorylation enrichment of RAEAPYLLVSN [LRIG1_Y1054_Q1053P]
0.556
